meta.source: PubChem BioAssay

- System: XIP peptide (Xip251-270) binding
- assay-protocol: small-molecule binders of XIP peptide, primary screen, biochemical, small-molecule microarray, fluorescence 635/667 nm, 0.1 µg/mL protein (AID 1182)
- details: fluorescent protein binding, 635 nm, higher = more signal, called active from +8 up or from −8 down
recorded-endpoint: composite z-score

* O=C1O[C@H](c2ccccc2)[C@H](c2ccccc2)N2[C@H]1[C@@H](C(=O)Nc1nc3ccccc3s1)[C@]1(C(=O)Nc3ccc(C#CC4(O)CCCCCC4)cc31)[C@H]2c1ccccc1OCCO | 0.0536
* O=C1N(Cc2ccccc2)c2ccccc2[C@@H]2OC(c3ccc(OCCCO)cc3)=N[C@]12Cc1ccccc1 | 0.0973
* C=CCNC(=O)[C@@H]1[C@H]2C(=O)O[C@H](c3ccccc3)[C@H](c3ccccc3)N2[C@H](c2ccc(O)cc2)[C@@]12C(=O)N(C(=O)OCCOC)c1ccc(C#CC3(O)CCCCCC3)cc12 | 0.0275
* COCCCNC(=O)[C@@]1(Cc2ccccc2N=[N+]=[N-])N=C(c2ccc(OCCCO)cc2)O[C@H]1c1ccccc1 | 0.226
* CCCNC(=O)[C@@H]1c2ccccc2C(=O)N(C(C)C)[C@H]1c1ccc(CO)cc1 | 0.251
* COC(=O)[C@@]1(Cc2ccc(F)cc2)[C@H]2c3cc(C(=O)N(C)C)n(Cc4cc(F)cc5c4OCOC5)c3C[C@H]2CN1C(=O)c1ccccc1 | 1.21
* Cn1cccc1C(O)C1C=CC2C(=O)NC(=O)C2N1Nc1ccc(Cl)cc1Cl (configuration not stated) | 0.789
